Readings of binding signal for the listed binders
Molecular target: T1, RBFOX1 RRM (Homo sapiens, UniProt Q9NWB1 109-208)
T1 sequence: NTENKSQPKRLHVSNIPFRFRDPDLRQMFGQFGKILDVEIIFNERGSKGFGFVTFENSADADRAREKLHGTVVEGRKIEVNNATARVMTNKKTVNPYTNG
Experiment: EMSA; HiTS-Eq, 1 nM pool, 10 min; buffer printed only for the single-RNA assays: 10 mM Tris pH 7.5, 150 mM NaCl, 3.4 mM EDTA, 0.001% NP-40, 30 C
Conditions: tags: His6 N-terminal (pET28a); label: 5' 32P
The full ranking holds about 16,000 sequences; the median of “ka relative to ugcaugu” is about 0.0091, and the highest 2% start at about 0.032. This is one part of a sample in which the highest values are shown more often than they occur.

| binder | recorded_endpoint | result |
| --- | --- | --- |
| UGCCCGC (DNA:RNA) RNA: GGGAGACCGGAAUUCAGAUUGUCCUGCCCGCUUAAAUCCCGUCGUAGCCACCA DNA 1: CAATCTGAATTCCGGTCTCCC DNA 2: TGGTGGCTACGACGGGATT | binding signal | 0.0206 KA relative to UGCAUGU |

Now for a further binder.
Reported binding signal for ACUAUCA (DNA:RNA) RNA: GGGAGACCGGAAUUCAGAUUGUCCACUAUCAUUAAAUCCCGUCGUAGCCACCA DNA 1: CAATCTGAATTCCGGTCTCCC DNA 2: TGGTGGCTACGACGGGATT : what is it?
0.00217 KA relative to UGCAUGU
